# Target system: P-gp (Homo sapiens, UniProt P08183)
# Sequence (P08183 whole entry): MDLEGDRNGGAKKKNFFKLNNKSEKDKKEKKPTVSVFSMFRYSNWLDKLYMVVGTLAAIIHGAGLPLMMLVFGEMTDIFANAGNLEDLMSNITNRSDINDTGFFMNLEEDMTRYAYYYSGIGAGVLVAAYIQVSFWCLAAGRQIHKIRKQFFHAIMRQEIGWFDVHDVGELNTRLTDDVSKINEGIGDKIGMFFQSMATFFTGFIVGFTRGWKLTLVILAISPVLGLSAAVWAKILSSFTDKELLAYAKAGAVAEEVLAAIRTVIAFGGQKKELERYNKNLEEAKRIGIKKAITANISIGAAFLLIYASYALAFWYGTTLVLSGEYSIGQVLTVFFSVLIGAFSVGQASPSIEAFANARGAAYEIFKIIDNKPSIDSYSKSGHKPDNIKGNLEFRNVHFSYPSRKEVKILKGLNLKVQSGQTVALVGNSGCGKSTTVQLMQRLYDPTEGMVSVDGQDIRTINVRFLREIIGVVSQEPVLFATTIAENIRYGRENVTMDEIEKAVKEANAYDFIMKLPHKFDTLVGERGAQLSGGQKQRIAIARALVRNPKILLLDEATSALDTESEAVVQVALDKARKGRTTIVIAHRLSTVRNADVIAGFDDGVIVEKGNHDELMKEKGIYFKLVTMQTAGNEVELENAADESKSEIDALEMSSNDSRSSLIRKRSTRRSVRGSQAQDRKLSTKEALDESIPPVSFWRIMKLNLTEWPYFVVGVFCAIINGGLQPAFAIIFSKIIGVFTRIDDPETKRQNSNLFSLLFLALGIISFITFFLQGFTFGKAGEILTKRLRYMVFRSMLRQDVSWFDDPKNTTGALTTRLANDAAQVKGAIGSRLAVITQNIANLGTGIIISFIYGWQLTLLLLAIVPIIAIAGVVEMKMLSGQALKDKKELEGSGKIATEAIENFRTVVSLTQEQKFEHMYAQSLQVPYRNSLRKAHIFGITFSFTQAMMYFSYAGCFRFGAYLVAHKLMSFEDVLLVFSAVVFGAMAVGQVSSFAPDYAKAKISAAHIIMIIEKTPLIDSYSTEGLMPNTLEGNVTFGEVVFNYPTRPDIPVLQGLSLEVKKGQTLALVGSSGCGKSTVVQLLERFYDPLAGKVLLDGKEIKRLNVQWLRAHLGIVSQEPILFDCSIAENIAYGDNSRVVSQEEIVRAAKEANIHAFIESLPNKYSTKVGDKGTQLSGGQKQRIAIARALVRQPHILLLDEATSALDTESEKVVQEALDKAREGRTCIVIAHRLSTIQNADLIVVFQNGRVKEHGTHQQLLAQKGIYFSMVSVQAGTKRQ
# Assay explanation: Inhibition of Calcein-AM transport in MDCK-MDR1 cells
# Reported conditions: Calcein-AM, MDCK-MDR1 cells; mean ± SEM of two experiments
Would you kindly list EC50 for each of these compounds?

Param readout= EC50; system= P-gp (Homo sapiens, UniProt P08183); entry= `COc1cc2c(cc1OC)CN(CCc1ccc(NC(=O)c3cccc(OC)c3OC)cc1)CC2` ; returns value.
260 nM

Param readout= EC50; system= P-gp (Homo sapiens, UniProt P08183); entry= `COc1cc2c(cc1OC)CN(CCc1ccc(OC(=O)c3cccc(OC)c3OC)cc1)CC2` ; returns value.
340 nM

Param readout= EC50; system= P-gp (Homo sapiens, UniProt P08183); entry= `COc1ccc2nccc(C(=O)Oc3ccc(CCN4CCc5cc(OC)c(OC)cc5C4)cc3)c2c1` ; returns value.
1400 nM

Param readout= EC50; system= P-gp (Homo sapiens, UniProt P08183); entry= `COc1ccc(C(=O)Oc2ccc(CCN3CCc4cc(OC)c(OC)cc4C3)cc2)cn1` ; returns value.
9240 nM

Param readout= EC50; system= P-gp (Homo sapiens, UniProt P08183); entry= `COc1cncc(C(=O)Oc2ccc(CCN3CCc4cc(OC)c(OC)cc4C3)cc2)n1` ; returns value.
220 nM

Param readout= EC50; system= P-gp (Homo sapiens, UniProt P08183); entry= `COc1cc2c(cc1OC)CN(CCc1ccc(OC(=O)c3c(OC)c(OC)cc4ccccc34)cc1)CC2` ; returns value.
100 nM

Param readout= EC50; system= P-gp (Homo sapiens, UniProt P08183); entry= `COc1cc2c(cc1OC)CN(CCc1ccc(NC(=O)c3c(OC)c(OC)cc4ccccc34)cc1)CC2` ; returns value.
47.8 nM

Param readout= EC50; system= P-gp (Homo sapiens, UniProt P08183); entry= `COc1cncc(C(=O)Nc2ccc(CCN3CCc4cc(OC)c(OC)cc4C3)cc2)n1` ; returns value.
870 nM
